- Assay overview: Inhibition of beta-lactamase VIM-2 (unknown origin)
Observed property: pIC50
# log scale: pIC50 equals minus log10 of the concentration in mol/L

Please give the documented pIC50 of O=C(O)/C(S)=C/c1c(Cl)ccc(Cl)c1Cl
6.52
